Reported IC50 values follow for various compounds
Target: GST-ITK/KD/G354 (wild-type ITK kinase domain) (Homo sapiens)
Sequence (Q08881 with tags, fused parts or gaps): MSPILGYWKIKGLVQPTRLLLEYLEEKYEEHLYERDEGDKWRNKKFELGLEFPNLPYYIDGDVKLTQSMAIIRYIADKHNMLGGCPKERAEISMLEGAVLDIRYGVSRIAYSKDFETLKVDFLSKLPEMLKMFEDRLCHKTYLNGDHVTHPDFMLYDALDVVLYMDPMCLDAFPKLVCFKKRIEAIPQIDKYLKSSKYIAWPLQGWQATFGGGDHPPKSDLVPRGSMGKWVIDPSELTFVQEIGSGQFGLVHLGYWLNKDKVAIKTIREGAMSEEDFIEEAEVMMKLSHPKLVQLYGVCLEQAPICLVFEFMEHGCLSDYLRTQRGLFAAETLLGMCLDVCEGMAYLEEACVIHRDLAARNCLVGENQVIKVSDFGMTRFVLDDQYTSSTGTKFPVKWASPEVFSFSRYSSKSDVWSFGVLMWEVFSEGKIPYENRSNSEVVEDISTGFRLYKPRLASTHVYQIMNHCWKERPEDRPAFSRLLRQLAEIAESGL
Assay: Tec Family Kinase Assay (DELFIA), wild-type ITK kinase domain
Settings: 15 μM ATP substrate mix
Give the number; nM is assumed, so skip it.

Illustrative cases are given below, each with its answer.
CN(C(=O)C1CCCCC1)c1ccc2c(c1)nc(NC(=O)c1ccc(C#N)cc1)n2CCCN1CCCC1=O: 15
CNc1ccc2c(c1)nc(NC(=O)c1ccc(C#N)cc1)n2CCC(N)=O: 460

The record that follows has no IC50 shown yet.
The recorded IC50 for entry Cc1ccc2c(c1)nc(NC(=O)c1ccc(C#N)cc1)n2CCC(N)=O equals 440

###

Reported pIC50 values follow for various compounds
Biological target: GST-ITK/KD/G354/F437Y (ITK F437Y) (Homo sapiens, UniProt Q08881, F437Y)
Sequence (Q08881 with tags, fused parts or gaps F437Y): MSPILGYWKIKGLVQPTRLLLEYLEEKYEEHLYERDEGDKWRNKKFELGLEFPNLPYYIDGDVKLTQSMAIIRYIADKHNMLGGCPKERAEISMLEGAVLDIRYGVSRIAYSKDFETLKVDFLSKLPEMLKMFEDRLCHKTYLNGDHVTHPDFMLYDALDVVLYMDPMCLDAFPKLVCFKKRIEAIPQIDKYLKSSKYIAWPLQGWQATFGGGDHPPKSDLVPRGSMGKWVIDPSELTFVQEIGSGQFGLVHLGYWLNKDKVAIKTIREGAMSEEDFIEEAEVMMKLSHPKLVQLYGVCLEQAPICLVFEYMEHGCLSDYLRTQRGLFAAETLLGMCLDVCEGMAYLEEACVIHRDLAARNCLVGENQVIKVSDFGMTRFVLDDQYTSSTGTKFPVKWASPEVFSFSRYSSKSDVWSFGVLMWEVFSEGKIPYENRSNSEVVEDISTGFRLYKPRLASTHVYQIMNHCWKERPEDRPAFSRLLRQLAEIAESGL
Assay: Tec Family Kinase Assay (DELFIA), F437Y mutant ITK kinase domain
Details: GST-ITK/KD/G354/F437Y mutant
A value of pIC50 is the negative decimal logarithm of a concentration given in moles per litre.

CNc1ccc2c(c1)nc(NC(=O)c1ccc(C#N)cc1)n2CCC(N)=O [Compound 1]: 5.92
Cc1ccc2c(c1)nc(NC(=O)c1ccc(C#N)cc1)n2CCC(N)=O [Compound 3]: 6.30

The record that follows has no pIC50 shown yet.
The recorded pIC50 for entry CN(C(=O)C1CCCCC1)c1ccc2c(c1)nc(NC(=O)c1ccc(C#N)cc1)n2CCCN1CCCC1=O [Compound 7] equals 6.80
